Data provenance: patent US20250282799A1

// values below are reported IC50
system: KRAS G12V dependent lung adenocarcinoma cell line, NCI-H441; assay: Cellular pERK (Thr202/Tyr204) FRET/HTRF assay; type: cell-based; details: Homo sapiens, NCI-H441, cellular pERK (Thr202/Tyr204) HTRF, NCI-H441 cells

Molecule	IC50
[2H]C([2H])(Oc1nc(N2CCOC[C@H]3[C@H](F)[C@H]32)c2cnc(-c3cc(N)c(F)c(C4CC4)c3C(F)(F)F)c(F)c2n1)[C@@]12CCCN1C[C@H](F)C2 [Example 270]	50 to 500 nM
C#Cc1c(F)ccc2cc(N)cc(-c3ncc4c(N5CCOC[C@H]6[C@H](F)[C@H]65)nc(OC[C@@]56C[C@H](C)CN5CCC65CC5)nc4c3F)c12 (single isomer, unassigned) [Example 243]	< 50 nM
[2H]C([2H])(Oc1nc(N2CCOC[C@H]3[C@H](F)[C@H]32)c2cnc(-c3cc(N)cc4ccc(F)c(C#C)c34)c(F)c2n1)[C@@]12CCCN1C[C@@H](Cl)C2 (single isomer, unassigned) [Example 237]	< 50 nM
[2H]C([2H])(Oc1nc(N2CCCC[C@H]3[C@H](F)[C@H]32)c2cnc(-c3cccc4c(F)c(F)c(F)c(C#C)c34)c(F)c2n1)[C@@]12CCCN1C[C@H](F)C2 [Example 111]	500 to 10000 nM
[2H]C([2H])(Oc1nc(N2CCOC[C@H]3[C@H](F)[C@H]32)c2cnc(-c3cc(O)c(F)c(C)c3C(F)(F)F)c(F)c2n1)[C@@]12CCCN1C[C@H](F)C2 [Example 330]	50 to 500 nM
